Cited source: patent US11155523B2

Readings of pIC50 for the listed compounds
target: CCR2 (Homo sapiens, UniProt P41597); assay: CCR2 in vitro test: intracellular calcium signal detected by FLIPR; settings: HEK293 cells expressing CCR2, agonist MCP-1 at EC80, calcium signal
Sequence (P41597 whole entry, species assumed): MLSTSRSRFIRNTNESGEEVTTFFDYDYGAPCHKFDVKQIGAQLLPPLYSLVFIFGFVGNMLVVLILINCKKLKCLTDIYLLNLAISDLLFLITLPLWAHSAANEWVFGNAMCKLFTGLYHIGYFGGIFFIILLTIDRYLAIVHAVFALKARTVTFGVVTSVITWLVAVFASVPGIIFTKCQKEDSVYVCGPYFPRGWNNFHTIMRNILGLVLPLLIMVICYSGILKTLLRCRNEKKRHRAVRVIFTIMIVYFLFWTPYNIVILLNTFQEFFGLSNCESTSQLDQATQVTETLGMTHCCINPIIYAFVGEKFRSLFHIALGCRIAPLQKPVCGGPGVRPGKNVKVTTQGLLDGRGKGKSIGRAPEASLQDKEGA
Just the number, please; pIC50 means minus log10 of the concentration in mol/L.

CCCOc1ccc(-c2ccc(OC(F)F)c(/C=C/C(=O)Nc3ccc([S@@+]([O-])Cc4cncn4CCC)cc3)c2)cc1    7.09

[in] Look up CCR2 (Homo sapiens, UniProt P41597) data: pIC50 of CCCCOCCOc1ccc(-c2ccc(OC)c(/C=C/C(=O)Nc3ccc([S+]([O-])Cc4cnccc4C)cc3)c2)cc1 (stereo not drawn) , then report it.
[out] 7.15

[in] Look up CCR2 (Homo sapiens, UniProt P41597) data: pIC50 of `CCCn1cncc1C[S@+]([O-])c1ccc(NC(=O)/C=C/c2cccc(-c3ccc(OC)cc3)c2)cc1` , then report it.
[out] 6.50

[in] Look up CCR2 (Homo sapiens, UniProt P41597) data: pIC50 of `CCCCOc1ccc(-c2ccc(OCCCF)c(/C=C/C(=O)Nc3ccc([S@@+]([O-])Cc4cncn4CCC)cc3)c2)cc1` , then report it.
[out] 7.20

[in] Look up CCR2 (Homo sapiens, UniProt P41597) data: pIC50 of `CCCCOCCOc1ccc(-c2cc(C)cc(/C=C/C(=O)Nc3ccc([S@@+]([O-])Cc4cncn4CCC)cc3)c2)cc1` , then report it.
[out] 8.00

[in] Look up CCR2 (Homo sapiens, UniProt P41597) data: pIC50 of `CCCCOc1ccc(-c2cccc(/C=C/C(=O)Nc3ccc([S@@+]([O-])Cc4cncn4CCC)cc3)c2)cc1` , then report it.
[out] 7.20

[in] Look up CCR2 (Homo sapiens, UniProt P41597) data: pIC50 of `CCCCOc1ccc(-c2ccc(OC(F)F)c(/C=C/C(=O)Nc3ccc([S@@+]([O-])Cc4cncn4CCC)cc3)c2)cc1` , then report it.
[out] 7.36

[in] Look up CCR2 (Homo sapiens, UniProt P41597) data: pIC50 of `CCCCOCCOc1ccc(-c2ccc(C(F)(F)F)c(/C=C/C(=O)Nc3ccc([S@+]([O-])Cc4c(C)ncn4CC)cc3)c2)cc1` , then report it.
[out] 8.35

[in] Look up CCR2 (Homo sapiens, UniProt P41597) data: pIC50 of `CCCCOCCOc1ccc(-c2cc(Cl)c(OC)c(/C=C/C(=O)Nc3ccc([S@@+]([O-])Cc4cncn4CCC)cc3)c2)cc1` , then report it.
[out] 8.23

[in] Look up CCR2 (Homo sapiens, UniProt P41597) data: pIC50 of `CCCCOCCOc1ccc(-c2ccc(OC(F)F)c(/C=C/C(=O)Nc3ccc([S@@+]([O-])Cc4c(C)ncn4CC)cc3)c2)cc1` , then report it.
[out] 8.05

[in] Look up CCR2 (Homo sapiens, UniProt P41597) data: pIC50 of `CCCCOCCOc1ccc(-c2ccc(C(C)C)c(/C=C/C(=O)Nc3ccc([S@@+]([O-])Cc4cncn4CCC)cc3)c2)cc1` , then report it.
[out] 7.49

[in] Look up CCR2 (Homo sapiens, UniProt P41597) data: pIC50 of CCCCOCCOc1ccc(-c2cccc(/C=C/C(=O)Nc3ccc([S+]([O-])Cc4cncn4CCCC)cc3)c2)cc1 (stereo not drawn) , then report it.
[out] 7.06
